Parameter IC50: see the listing below.
# MEASURED ON: IKKε (Homo sapiens)
# Construct: His-tag; made in house; host or cells: Sf9 insect cells
# PROTOCOL DESCRIPTION: In-vitro IKKε kinase assay ([γ33]ATP filter-plate)
# Assay type: biochemical
# SETTINGS: text bins; read-out: IC50 for inhibition of the kinase activity of IKKε

# annotated cases, reported IC50 shown
MOLECULE: N#Cc1cc(-c2ccnc(Nc3ccc(N4CCOCC4)cc3)n2)ccc1OC1CCN(C(=O)Cn2ccnc2)CC1
IC50: 5 to 50 nM
--
MOLECULE: CC(C)C(=O)Nc1ccc(-c2ccnc(Nc3ccc(CC(=O)N4CCOCC4)cc3)n2)cc1C#N
IC50: 5 to 50 nM
--
MOLECULE: COCCNCc1ccc(Nc2nccc(-c3ccc(OC4CCOCC4)c(C#N)c3)n2)cc1OC
IC50: < 5 nM
--
MOLECULE: COc1ccc(Nc2nccc(-c3ccc(NC(C)=O)c(C#N)c3)n2)cc1OC
IC50: 5 to 50 nM
--
MOLECULE: COc1ccc(-c2ccnc(Nc3ccc(N4CCN(C(C)C)C(=O)C4)c(OC)c3)n2)cc1C#N
IC50: 5 to 50 nM
--
MOLECULE: N#Cc1cc(-c2ccnc(Nc3ccc(N4CCOCC4)cc3)n2)ccc1OC1CCNCC1
IC50: 5 to 50 nM
--
MOLECULE: N#Cc1cc(-c2ccnc(Nc3cccc(NCCN4CCOCC4)c3)n2)ccc1OC1CCOCC1
IC50: < 5 nM
--
MOLECULE: N#Cc1cc(-c2ccnc(Nc3cccc(NC(=O)N4CCOCC4)c3)n2)ccc1OC1CCOCC1
IC50: < 5 nM

Please state recorded IC50 (tested on IKKε (Homo sapiens)) of C[C@H](O)C(=O)N1CCC(Oc2ccc(-c3ccnc(Nc4ccc(N5CCOCC5)cc4)n3)cc2C#N)C1 (stereo partly shown)
5 to 50 nM

Same question, "N#Cc1cc(-c2ccnc(Nc3ccc(NC(=O)Nc4ccncc4)cc3)n2)ccc1OC1CCOCC1" this time
5 to 50 nM

Same question, "COc1ccc(-c2ccnc(Nc3ccc(N4CCNC(=O)C4)cc3)n2)cc1C#N" this time
5 to 50 nM

Same question, "COc1ccc(-c2ccnc(Nc3ccc(OC)c(OC4CCN(C)CC4)c3)n2)cc1C#N" this time
50 to 500 nM

* * *

# MEASURED ON: IKKε (Homo sapiens, UniProt Q14164)
# Construct: His-tag; made in house; host or cells: Sf9 insect cells
# Sequence (Q14164 whole entry): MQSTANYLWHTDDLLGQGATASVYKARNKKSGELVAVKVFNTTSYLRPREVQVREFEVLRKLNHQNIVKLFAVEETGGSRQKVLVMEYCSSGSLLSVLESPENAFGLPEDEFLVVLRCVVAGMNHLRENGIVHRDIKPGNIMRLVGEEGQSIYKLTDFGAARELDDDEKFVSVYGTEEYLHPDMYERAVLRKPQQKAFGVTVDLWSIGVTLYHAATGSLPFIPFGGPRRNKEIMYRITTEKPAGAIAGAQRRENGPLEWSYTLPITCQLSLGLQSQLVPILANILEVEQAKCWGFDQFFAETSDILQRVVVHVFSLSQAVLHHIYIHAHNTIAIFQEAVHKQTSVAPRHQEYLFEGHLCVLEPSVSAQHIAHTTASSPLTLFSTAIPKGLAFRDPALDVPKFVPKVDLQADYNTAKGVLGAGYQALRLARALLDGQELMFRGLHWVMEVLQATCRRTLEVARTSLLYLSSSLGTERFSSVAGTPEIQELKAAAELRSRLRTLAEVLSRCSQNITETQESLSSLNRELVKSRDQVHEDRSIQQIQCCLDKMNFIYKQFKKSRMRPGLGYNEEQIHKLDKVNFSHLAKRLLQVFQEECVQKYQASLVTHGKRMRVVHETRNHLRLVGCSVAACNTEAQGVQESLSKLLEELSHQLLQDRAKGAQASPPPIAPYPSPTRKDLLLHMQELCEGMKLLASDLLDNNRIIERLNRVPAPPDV
# PROTOCOL DESCRIPTION: In-vitro IKKε kinase assay ([γ33]ATP filter-plate)
# Type: biochemical
# SETTINGS: Table 3; read-out: IKKε IC50
# Protocol: IKKε enzyme was produced as a His-tag fusion in Sf9 cells and used at a final concentration of […]. TBK1 enzyme was produced as a His-tag fusion in Sf9 cells and used at a final concentration of 0.1 μg/ml. […] After air drying, scintillant (PerkinElmer, Waltham, Mass.) was added and the plates were read on a PerkinElmer TopCount NXT instrument. […]
pIC50: −log10 of the molar value.
ENDPOINT NAME: pIC50

# annotated cases, reported pIC50 shown
COMPOUND: N#Cc1cc(-c2ccnc(Nc3ccc(CNC(=O)c4cnc(N)s4)cc3)n2)ccc1OC1CCOCC1
MEASURED ON: IKKε (Homo sapiens, UniProt Q14164)
pIC50: 8.85
--
COMPOUND: COc1cc(Nc2nccc(-c3ccc(OC4CCOCC4)c(C#N)c3)n2)ccc1C(=O)NCCN(C)C
MEASURED ON: IKKε (Homo sapiens, UniProt Q14164)
pIC50: 8.96
--
COMPOUND: COc1cc(Nc2nccc(-c3ccc(OC4CCN(C(=O)CO)CC4)c(C#N)c3)n2)ccc1N1CCOCC1
MEASURED ON: IKKε (Homo sapiens, UniProt Q14164)
pIC50: 9.70

[I] CN1CCN(CCNc2cccc(Nc3nccc(-c4ccc(OC5CCOCC5)c(C#N)c4)n3)c2)CC1
[II] COc1cc(-c2ccnc(Nc3ccc(N4CCOCC4)cc3)n2)cc(C#N)c1OC1CCOCC1
Select one: I or II . Criterion: greater recorded pIC50. Refer to your chosen entry by its label in the reply.
I

[I] COc1cc(Nc2nccc(-c3ccc(OC4CCOCC4)c(C#N)c3)n2)ccc1C(=O)NC1CCN(C)CC1
[II] CN(C)S(=O)(=O)Cc1cccc(Nc2nccc(-c3ccc(OC4CCOCC4)c(C#N)c3)n2)c1
[III] CNS(=O)(=O)Cc1cccc(Nc2nccc(-c3ccc(OC4CCOCC4)c(C#N)c3)n2)c1
Write the entries in order, lowest recorded pIC50 first. Answer by naming the labels in the order asked.
III, II, I
(III: 8.41, II: 8.62, I: 9.22)

[I] N#Cc1cc(-c2ccnc(Nc3cccc(CN4CCC(O)C4)c3)n2)ccc1OC1CCOCC1 (stereo not drawn)
[II] COc1cc(Nc2nccc(-c3ccc(OC4CCOCC4)c(C#N)c3)n2)ccc1S(=O)(=O)NCCCN1CCOCC1
[III] N#Cc1cc(-c2ccnc(Nc3cccc(CS(=O)(=O)NCCO)c3)n2)ccc1OCC1CC1
Order field: pIC50 | Direction: descending (largest first) Answer by naming the labels in the order asked.
I, II, III
